- Test system: IMR-5 (Neuroblastoma)
- ASSAY_METHOD_TEXT: combination Emax (second highest fraction inhibited in the dose matrix, 72 h); higher = more inhibition; extreme values may be limits of the assay
READOUT_NAME: combination Emax
Output spec: single numeric token, no unit.

Please fill in: combination Emax reported for Cc1cc2ncnn2cc1Nc1ncc2c(n1)n(C1CCOCC1)c(=O)n2C [AZD7648] + C=CCn1c(=O)c2cnc(Nc3ccc(N4CCN(C)CC4)cc3)nc2n1-c1cccc(C(C)(C)O)n1 [AZD1775] (first compound max 10 µM, partner max 1 µM) = 0.781

Please fill in: combination Emax reported for CC(=O)c1c(C)c2cnc(Nc3ccc(N4CCNCC4)cn3)nc2n(C2CCCC2)c1=O [Palbociclib] + CC1(C)CCC(CN2CCN(c3ccc(C(=O)NS(=O)(=O)c4ccc(NCC5CCOCC5)c([N+](=O)[O-])c4)c(Oc4cnc5[nH]ccc5c4)c3)CC2)=C(c2ccc(Cl)cc2)C1 [Venetoclax] (first compound max 10 µM, 7x7, partner max 1 µM) = 0.7

Please fill in: combination Emax reported for Cc1c2c(nn1C)CSCc1cc(n(C)n1)CSc1cc(c3ccccc3c1)OCCCc1c(C(=O)O)n(C)c3c-2c(Cl)ccc13 [AZD5991] + CCN(CCO)CCCOc1ccc2c(Nc3cc(CC(=O)Nc4cccc(F)c4)[nH]n3)ncnc2c1 [AZD2811] (first compound max 1 µM, 7x7, partner max 1 µM) = 1
